- Procedure Details: in vivo
- Assay type: in vivo, rat
- Condition Context: in vivo; rat, one animal excluded from the plot, 10 min after oral 5 mg/kg ocinaplon, may have regurgitated part of the dose; read-out: blood level
Measured Quantity: concentration at 10 min (ng/mL)
Give bare numbers, in ng/mL.

Need concentration at 10 min, item O=C(c1ccccn1)c1cnn2c(-c3ccncc3)ccnc12
470

* * *

- Subject Of Test: α5β2γ3 GABAA-R (Rattus norvegicus, UniProt P19969+P28473)
- Construct: expressed in transfected cells; host or cells: HEK293 (CRL 1573), transient transfection
- Sequence (P19969 32-464 limits assumed): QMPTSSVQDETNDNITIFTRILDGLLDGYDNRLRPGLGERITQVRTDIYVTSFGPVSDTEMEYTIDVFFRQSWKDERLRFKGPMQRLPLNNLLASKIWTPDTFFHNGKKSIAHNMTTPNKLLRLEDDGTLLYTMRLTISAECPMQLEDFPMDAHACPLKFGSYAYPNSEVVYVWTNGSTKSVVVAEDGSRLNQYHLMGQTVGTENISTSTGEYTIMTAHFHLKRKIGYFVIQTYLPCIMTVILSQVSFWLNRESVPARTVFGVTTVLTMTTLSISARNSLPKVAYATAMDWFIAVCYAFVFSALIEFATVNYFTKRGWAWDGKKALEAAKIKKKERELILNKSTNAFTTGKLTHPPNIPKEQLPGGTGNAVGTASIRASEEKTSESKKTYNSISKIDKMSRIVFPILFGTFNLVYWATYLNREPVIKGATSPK
- Sequence (P63138 25-474 partner limits assumed): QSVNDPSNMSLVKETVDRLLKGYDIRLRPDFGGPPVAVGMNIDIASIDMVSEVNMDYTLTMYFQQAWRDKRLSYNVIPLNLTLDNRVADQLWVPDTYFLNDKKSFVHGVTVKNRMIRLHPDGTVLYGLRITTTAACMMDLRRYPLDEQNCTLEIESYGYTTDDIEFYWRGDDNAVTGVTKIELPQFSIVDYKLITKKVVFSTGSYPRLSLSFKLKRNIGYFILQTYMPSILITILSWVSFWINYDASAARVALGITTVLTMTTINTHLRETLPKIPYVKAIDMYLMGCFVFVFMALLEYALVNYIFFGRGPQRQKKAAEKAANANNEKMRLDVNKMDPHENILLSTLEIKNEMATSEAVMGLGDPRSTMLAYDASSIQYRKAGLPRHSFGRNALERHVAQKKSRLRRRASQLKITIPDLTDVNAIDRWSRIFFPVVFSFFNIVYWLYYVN
- Sequence (P28473 18-467): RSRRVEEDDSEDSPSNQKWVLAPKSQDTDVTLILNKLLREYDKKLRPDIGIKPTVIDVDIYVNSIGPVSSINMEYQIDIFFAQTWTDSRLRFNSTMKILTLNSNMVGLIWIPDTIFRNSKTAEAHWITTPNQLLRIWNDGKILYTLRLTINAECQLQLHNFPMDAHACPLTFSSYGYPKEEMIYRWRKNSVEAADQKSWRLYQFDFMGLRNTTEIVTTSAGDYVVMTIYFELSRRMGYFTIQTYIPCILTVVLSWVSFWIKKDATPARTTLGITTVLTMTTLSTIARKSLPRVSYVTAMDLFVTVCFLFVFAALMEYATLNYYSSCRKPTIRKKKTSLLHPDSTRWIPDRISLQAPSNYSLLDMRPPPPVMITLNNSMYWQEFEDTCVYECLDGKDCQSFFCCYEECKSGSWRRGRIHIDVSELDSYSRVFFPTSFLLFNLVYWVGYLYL
- Procedure Details: biochemical
- Assay type: binding
- Condition Context: [3H]Ro15-1788 displacement, α5β2γ3, n = 3; read-out: IC50
Measured Quantity: pIC50
Numbers only, as −log10 of the molar value.

Would you mind giving pIC50 for every compound in the list below?
1. O=C(c1ccccn1)c1cnn2c(-c3cc[n+]([O-])cc3)ccnc12
2. O=C(c1ccccn1)c1cnn2c(-c3ccncc3)ccnc12

4.57
5.00

The measured values listed here are drawn from paper PMC2529273.
